From: patent US8716473B2

Each entry below carries its measured IC50, system: p70S6K (h) (Homo sapiens, UniProt P23443).
Sequence (P23443 whole entry): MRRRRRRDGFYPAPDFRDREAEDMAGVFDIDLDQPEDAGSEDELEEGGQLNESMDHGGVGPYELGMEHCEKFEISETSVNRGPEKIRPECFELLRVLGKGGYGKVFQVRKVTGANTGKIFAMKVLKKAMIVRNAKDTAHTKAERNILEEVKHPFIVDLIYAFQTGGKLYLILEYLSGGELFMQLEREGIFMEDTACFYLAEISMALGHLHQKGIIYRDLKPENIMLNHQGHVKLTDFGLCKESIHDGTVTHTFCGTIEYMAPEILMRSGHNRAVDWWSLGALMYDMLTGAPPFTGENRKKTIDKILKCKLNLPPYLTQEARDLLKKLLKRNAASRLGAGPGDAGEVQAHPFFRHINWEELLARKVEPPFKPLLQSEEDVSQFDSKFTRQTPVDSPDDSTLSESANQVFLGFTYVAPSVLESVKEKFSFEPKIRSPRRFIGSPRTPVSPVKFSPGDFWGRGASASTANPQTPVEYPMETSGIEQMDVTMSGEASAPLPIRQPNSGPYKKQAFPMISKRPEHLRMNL
Structures can show the parent of a compound that is named as a salt.

Example entries and their recorded answers appear below.
>  <compound>
c1cc(CNc2cnc3cc(-c4cn[nH]c4)ccc3n2)ccn1 [Example 14, hydrochloride]

>  <IC50>
< 5000 nM

$$$$
>  <compound>
C[C@H](Nc1cnc2cc(-c3cn[nH]c3)ccc2n1)c1ccccc1 [Example 24, hydrochloride]

>  <IC50>
< 5000 nM

$$$$
>  <compound>
c1cc(CNc2cnc3cc(-c4cn[nH]c4)ccc3n2)cc(N2CCOCC2)c1 [Example 7, hydrochloride]

>  <IC50>
< 5000 nM

$$$$
>  <compound>
CN(Cc1ccccc1)c1cnc2cc(-c3cn[nH]c3)ccc2n1 [Example 2, hydrochloride]

>  <IC50>
< 100 nM

$$$$
>  <compound>
CN(Cc1ccccc1Cl)c1cnc2cc(-c3cn[nH]c3)ccc2n1 [Example 45, hydrochloride]

>  <IC50>
< 1000 nM

$$$$
>  <compound>
COc1cccc(CNc2nc3ccc(-c4cn[nH]c4)cc3[n+]([O-])n2)c1

>  <IC50>
< 100 nM

$$$$
>  <compound>
C[C@@H](Nc1cnc2cc(-c3cn[nH]c3)ccc2n1)c1cccc(Cl)c1 [Example 55, hydrochloride]

>  <IC50>
< 100 nM

$$$$
>  <compound>
CN(Cc1ccc(F)cc1)c1cnc2cc(-c3cn[nH]c3)ccc2n1

>  <IC50>
< 100 nM

$$$$
>  <compound>
COc1cccc([C@@H](C)N(C)c2cnc3cc(-c4cn[nH]c4)ccc3n2)c1 [Example 53, hydrochloride]

>  <IC50>
< 100 nM

$$$$
>  <compound>
COc1cccc(CN(C)c2cnc3cc(-c4cn[nH]c4)ccc3n2)c1

>  <IC50>
< 100 nM

$$$$

What the record says about [O-][n+]1cc(NCc2ccccc2)nc2ccc(-c3cn[nH]c3)cc21 [Example 65C] : IC50 is < 1000 nM

GET /value?item= c1ccc2cc(CNc3cnc4cc(-c5cn[nH]c5)ccc4n3)ccc2c1 [Example 39, hydrochloride] &field=IC50 returns < 1000 nM

Record summary for `Clc1cccc(CNc2cnc3cc(-c4cn[nH]c4)ccc3n2)c1` : reported IC50 = < 100 nM
